B1: Far upstream element-binding protein 1, residues 184 to 257; numbered along this chain, Q96AE4 (parent)
chain: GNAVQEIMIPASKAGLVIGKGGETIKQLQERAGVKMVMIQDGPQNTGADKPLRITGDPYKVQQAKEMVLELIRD

variants of: B1; test: abundance fitness (aPCA) (normalised: wild type 0, dead -1); higher = more abundant; growth selection in yeast, the domain comes from the species named; conditions: Homo sapiens
reportedEndpoint: abundance fitness

>  <variantDescriptor>
I25S

>  <abundance fitness>
-0.387

$$$$

Fill blank: measured abundance fitness of the variant `D41Q` is ____.
-0.006

Give the measured abundance fitness of `K35H` .
0.003

Can you look up the measured abundance fitness of `A64K` for me?
-0.758

Fill in the blank: the reported abundance fitness of `Q63N` is ____.
-0.107

Look at this variant and give its reported abundance fitness. `R31K`
0.016

Look up abundance fitness: `G22V`
-0.261

Which abundance fitness is reported for this variant? `S12A`
0.012

Entry under review: `K35T` . Reported abundance fitness?
-0.093

Endpoint output: abundance fitness of `G56R` . Value?
-1.04

Please look up its abundance fitness: `V68F`
-0.658

Record request: abundance fitness value, item `M38C`
-0.166

Entry `M67Q` : reported abundance fitness = ?
-0.067

What does the record list as abundance fitness for `T46W` ?
-0.136

What does the record list as abundance fitness for `K13C` ?
-0.008

Can you look up the measured abundance fitness of `K26C` for me?
-0.179

Fill in: abundance fitness of `A14G` is ___
-0.193

What value of abundance fitness has been reported for the following variant? `I54H`
-1.03

Look at this variant and give its reported abundance fitness. `E66V`
-0.072

State the recorded abundance fitness for this entry: `D41Y`
-0.139
